# test.details: total protein half-life in vivo (active degradation + dilution); higher = more stable protein
# condition.notes: wild type E. coli NCM3722; growth: C-lim chemostat; doubling time 12 h
Please respond with reported total protein half-life in vivo for every item in the list.
Answers are plain numbers, in h.

>>> reported_measurement("MIDTTLPLTDIHRHLDGNIRPQTILELGRQYNISLPAQSLETLIPHVQVIANEPDLVSFLTKLDWGVKVLASLDACRRVAFENIEDAARHGLHYVELRFSPGYMAMAHQLPVAGVVEAVIDGVREGCRTFGVQAKLIGIMSRTFGEAACQQELEAFLAHRDQITALDLAGDELGFPGSLFLSHFNRARDAGWHITVHAGEAAGPESIWQAIRELGAERIGHGVKAIEDRALMDFLAEQQIGIESCLTSNIQTSTVAELAAHPLKTFLEHGIRASINTDDPGVQGVDIIHEYTVAAPAAGLSREQIRQAQINGLEMAFLSAEEKRALREKVAAK")
10.6

State the recorded total protein half-life in vivo for this entry: MPSFDIVSEVDLQEARNAVDNASREVESRFDFRNVEASFELNDASKTIKVLSESDFQVNQLLDILRAKLLKRGIEGSSLDVPENIVHSGKTWFVEAKLKQGIESATQKKIVKMIKDSKLKVQAQIQGDEIRVTGKSRDDLQAVMAMVRGGDLGQPFQFKNFRD [P0A8E7]
10.7

Values were extracted from the supplement of paper PMC11246515.
